Source listed as BindingDB's records for aid1799744.

biological target: Mitogen-activated protein kinase 1 (Homo sapiens); experiment: Assay 1
pKi: −log10 of the molar value.
# cutoff 8 applies to pKi; >= gives yes, < gives no

[[record]]
compound_structure_string = "CCOC(=O)CNCc1ccc(-c2c[nH]nc2-c2c[nH]c(C(=O)N[C@H](CO)c3ccc(F)c(Cl)c3)c2)cc1Cl"
discrete_label = "no"

[[record]]
compound_structure_string = "Cc1cccc([C@@H](CO)NC(=O)c2cc(-c3nc(NCC(F)(F)F)ncc3C)c[nH]2)c1"
discrete_label = "yes"

[[record]]
compound_structure_string = "Cc1cccc(Nc2ncc(C)c(-c3c[nH]c(C(=O)N[C@H](CO)c4cccc(Cl)c4)c3)n2)n1"
discrete_label = "yes"

[[record]]
compound_structure_string = "Cc1cnc(NN2CCN(C)CC2)nc1-c1c[nH]c(C(=O)N[C@H](CO)c2cccc(Cl)c2)c1"
discrete_label = "no"

[[record]]
compound_structure_string = "Cc1cnc(N)nc1-c1c[nH]c(C(=O)NCc2c(Cl)cccc2Cl)c1"
discrete_label = "no"

[[record]]
compound_structure_string = "Cc1cnc(NC2CCCCC2)nc1-c1c[nH]c(C(=O)N[C@H](CO)c2cccc(Cl)c2)c1"
discrete_label = "yes"

[[record]]
compound_structure_string = "O=C(NCc1ccncc1)c1cc(-c2n[nH]cc2-c2cc(Cl)cc(Cl)c2)c[nH]1"
discrete_label = "no"

[[record]]
compound_structure_string = "Cc1cnc(NCc2ccncc2)nc1-c1c[nH]c(C(=O)N[C@H](CO)c2ccccc2)c1"
discrete_label = "no"

[[record]]
compound_structure_string = "Cc1cccc([C@@H](CO)NC(=O)c2cc(-c3nc(NCC(C)C)ncc3C)c[nH]2)c1"
discrete_label = "yes"

[[record]]
compound_structure_string = "CCC[C@@H](CO)Nc1ncc(C)c(-c2c[nH]c(C(=O)N[C@H](CO)c3ccccc3)c2)n1"
discrete_label = "no"

[[record]]
compound_structure_string = "c1ccc2c(Nc3cc(C4CC4)n[nH]3)nc(Nc3ccc4nc[nH]c4c3)nc2c1"
discrete_label = "no"

[[record]]
compound_structure_string = "Cc1cnc(N)nc1-c1cc(C(=O)NCc2ccc(F)c(Cl)c2)n(Cc2ccccc2)c1"
discrete_label = "no"

[[record]]
compound_structure_string = "COc1cccc(Nc2ncc(C)c(-c3c[nH]c(C(=O)N[C@H](CO)c4ccccc4)c3)n2)c1OC"
discrete_label = "yes"


---

Parameter: pKi. Scope: all listed entries.
biological target: Mitogen-activated protein kinase 1 (Homo sapiens); assay: Assay 1
pKi: −log10 of the molar value.
endpoint: pKi

[[record]]
compound_structure_string = "Cc1cnc(Nc2c(Cl)cccc2Cl)nc1-c1c[nH]c(C(=O)N[C@H](CO)c2ccccc2)c1"
endpoint = "pKi"
quantitative_readout = 6.82

[[record]]
compound_structure_string = "Cc1cnc(NO)nc1-c1c[nH]c(C(=O)N[C@H](CO)c2ccccc2)c1"
endpoint = "pKi"
quantitative_readout = 5.63

[[record]]
compound_structure_string = "CNc1ncc(C)c(-c2c[nH]c(C(=O)NCc3cccc4ccccc34)c2)n1"
endpoint = "pKi"
quantitative_readout = 7.24

[[record]]
compound_structure_string = "CC(C)Nc1cc(-c2c[nH]c(C(=O)N[C@H](CO)c3cccc(Cl)c3)c2)ncn1"
endpoint = "pKi"
quantitative_readout = 7.52


---

target: Mitogen-activated protein kinase 1 (Homo sapiens); test: Assay 1
pKi: −log10 of the molar value.
Each entry below carries its reported pKi.
endpoint: pKi

[[record]]
compound = "Cc1cnc(N[C@H]2CCC[C@@H]2O)nc1-c1c[nH]c(C(=O)N[C@H](CO)c2cccc(Cl)c2)c1"
assay_system = "Mitogen-activated protein kinase 1 (Homo sapiens)"
endpoint = "pKi"
quantitative_readout = 7.46

[[record]]
compound = "CCNc1ncc(C)c(-c2c[nH]c(C(=O)N[C@@H](CO)c3cccc(F)c3)c2)n1"
assay_system = "Mitogen-activated protein kinase 1 (Homo sapiens)"
endpoint = "pKi"
quantitative_readout = 8.05

[[record]]
compound = "Cc1cnc(NCCO)nc1-c1c[nH]c(C(=O)N[C@H](CO)c2ccccc2)c1"
assay_system = "Mitogen-activated protein kinase 1 (Homo sapiens)"
endpoint = "pKi"
quantitative_readout = 7.77

[[record]]
compound = "Cc1cnc(NOCc2ccccc2)nc1-c1c[nH]c(C(=O)N[C@H](CO)c2ccccc2)c1"
assay_system = "Mitogen-activated protein kinase 1 (Homo sapiens)"
endpoint = "pKi"
quantitative_readout = 6.72

[[record]]
compound = "O=C(NCc1ccc2c(c1)CCO2)c1cc(-c2n[nH]cc2-c2cccc(Cl)c2)c[nH]1"
assay_system = "Mitogen-activated protein kinase 1 (Homo sapiens)"
endpoint = "pKi"
quantitative_readout = 7.68

[[record]]
compound = "Cc1cnc(Nc2ccccc2)nc1-c1c[nH]c(C(=O)N[C@H](CO)c2ccccc2)c1"
assay_system = "Mitogen-activated protein kinase 1 (Homo sapiens)"
endpoint = "pKi"
quantitative_readout = 8.40

[[record]]
compound = "Cc1cnc(NN2CCCCC2)nc1-c1c[nH]c(C(=O)N[C@H](CO)c2ccccc2)c1"
assay_system = "Mitogen-activated protein kinase 1 (Homo sapiens)"
endpoint = "pKi"
quantitative_readout = 9.00

[[record]]
compound = "CCNc1ncc(C)c(-c2c[nH]c(C(=O)NCc3ccccc3C(F)(F)F)c2)n1"
assay_system = "Mitogen-activated protein kinase 1 (Homo sapiens)"
endpoint = "pKi"
quantitative_readout = 5.34

[[record]]
compound = "NS(=O)(=O)c1cccc(Nc2nccc(-c3ccc(O)c(C(=O)O)c3)n2)c1"
assay_system = "Mitogen-activated protein kinase 1 (Homo sapiens)"
endpoint = "pKi"
quantitative_readout = 6.64

[[record]]
compound = "CC[C@@H](COC(=O)[C@@H](N)C(C)C)Nc1ncc(C)c(-c2c[nH]c(C(=O)N[C@H](COC(=O)[C@@H](N)C(C)C)c3cccc(Cl)c3)c2)n1"
assay_system = "Mitogen-activated protein kinase 1 (Homo sapiens)"
endpoint = "pKi"
quantitative_readout = 6.12

[[record]]
compound = "CNc1ncc(C)c(-c2c[nH]c(C(=O)NCc3ccc(Cl)cc3Cl)c2)n1"
assay_system = "Mitogen-activated protein kinase 1 (Homo sapiens)"
endpoint = "pKi"
quantitative_readout = 5.70

[[record]]
compound = "CCNc1ncc(C)c(-c2c[nH]c(C(=O)N[C@@H](CCO)c3ccccc3)c2)n1"
assay_system = "Mitogen-activated protein kinase 1 (Homo sapiens)"
endpoint = "pKi"
quantitative_readout = 6.30

[[record]]
compound = "CCNc1ncc(C)c(-c2c[nH]c(C(=O)N[C@H](CO)c3cccc(C)c3)c2)n1"
assay_system = "Mitogen-activated protein kinase 1 (Homo sapiens)"
endpoint = "pKi"
quantitative_readout = 8.40

[[record]]
compound = "Cc1cccnc1Nc1ncc(C)c(-c2c[nH]c(C(=O)N[C@H](CO)c3ccccc3)c2)n1"
assay_system = "Mitogen-activated protein kinase 1 (Homo sapiens)"
endpoint = "pKi"
quantitative_readout = 7.04

[[record]]
compound = "CC[C@@H](COC(=O)COCCOC)Nc1ncc(C)c(-c2c[nH]c(C(=O)N[C@H](COC(=O)COCCOC)c3cccc(Cl)c3)c2)n1"
assay_system = "Mitogen-activated protein kinase 1 (Homo sapiens)"
endpoint = "pKi"
quantitative_readout = 6.37

[[record]]
compound = "C[S+]([O-])c1ccc(-c2nc(-c3cccc(I)c3)c(-c3ccncc3)[nH]2)cc1 (stereo unspecified)"
assay_system = "Mitogen-activated protein kinase 1 (Homo sapiens)"
endpoint = "pKi"
quantitative_readout = 4.89


---

biological target: Mitogen-activated protein kinase 1 (Homo sapiens, UniProt P28482); test: Assay 1
Sequence (P28482 whole entry): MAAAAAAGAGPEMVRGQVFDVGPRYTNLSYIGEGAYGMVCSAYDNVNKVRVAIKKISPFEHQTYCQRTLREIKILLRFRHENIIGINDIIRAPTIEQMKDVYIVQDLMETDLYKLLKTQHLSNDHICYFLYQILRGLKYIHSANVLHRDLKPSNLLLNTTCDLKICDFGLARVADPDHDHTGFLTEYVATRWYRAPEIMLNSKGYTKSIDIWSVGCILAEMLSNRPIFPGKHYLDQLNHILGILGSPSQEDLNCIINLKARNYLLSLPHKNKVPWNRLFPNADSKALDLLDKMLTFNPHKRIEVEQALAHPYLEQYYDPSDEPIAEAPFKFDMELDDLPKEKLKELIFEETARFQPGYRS
Reported Ki by item:
endpoint: Ki

[[record]]
compound = "CCNc1ncc(C)c(-c2c[nH]c(C(=O)N[C@H](C(=O)OC)c3ccccc3)c2)n1 [erk000470]"
assay_system = "Mitogen-activated protein kinase 1 (Homo sapiens, UniProt P28482)"
result = "1000 nM"

[[record]]
compound = "Cc1cnc(Nc2ccccn2)nc1-c1c[nH]c(C(=O)N[C@H](CO)c2cccc(Cl)c2)c1 [erk000611]"
assay_system = "Mitogen-activated protein kinase 1 (Homo sapiens, UniProt P28482)"
result = "71 nM"

[[record]]
compound = "C[C@@H]1CCN(C(=O)CC#N)C[C@@H]1N(C)c1nc(Nc2ccc(N3CCOCC3)cc2)nc2[nH]cnc12 [erk000723]"
assay_system = "Mitogen-activated protein kinase 1 (Homo sapiens, UniProt P28482)"
result = "407 nM"

[[record]]
compound = "CNc1ncc(C)c(-c2c[nH]c(C(=O)N[C@@H](CO)c3ccc(F)c(Cl)c3)c2)n1 [erk000396]"
assay_system = "Mitogen-activated protein kinase 1 (Homo sapiens, UniProt P28482)"
result = "68 nM"


---

target: Mitogen-activated protein kinase 1 (Homo sapiens); experiment: Assay 1
The following compounds are shown together with reported log10 Ki values.
endpoint: log10 Ki (log10 of the value in µM)

[[record]]
compound_structure_string = "Cc1ccccc1CNC(=O)c1cc(-c2ccnc(N)n2)c[nH]1"
endpoint = "log10 Ki"
quantitative_readout = 0.11

[[record]]
compound_structure_string = "Cc1cnc(NC2(CO)CC2)nc1-c1c[nH]c(C(=O)N[C@H](CO)c2ccccc2)c1"
endpoint = "log10 Ki"
quantitative_readout = -3.00

[[record]]
compound_structure_string = "Cc1cnc(N[C@H](CO)c2ccccc2)nc1-c1c[nH]c(C(=O)N[C@H](CO)c2ccccc2)c1"
endpoint = "log10 Ki"
quantitative_readout = -3.00

[[record]]
compound_structure_string = "Cc1cnc(N)nc1-c1cc(C(=O)NCc2ccc(F)c(F)c2)n(C)c1"
endpoint = "log10 Ki"
quantitative_readout = 0.54

[[record]]
compound_structure_string = "Cc1cnc(Nc2ccccc2)nc1-c1c[nH]c(C(=O)N[C@H](COC(=O)[C@@H](N)C(C)C)c2ccccc2)c1"
endpoint = "log10 Ki"
quantitative_readout = -0.42

[[record]]
compound_structure_string = "Cc1cnc(NC2Cc3ccccc3C2)nc1-c1c[nH]c(C(=O)N[C@H](CO)c2cccc(Cl)c2)c1"
endpoint = "log10 Ki"
quantitative_readout = -1.80

[[record]]
compound_structure_string = "CCNc1ncc(CC)c(-c2c[nH]c(C(=O)N[C@H](CO)c3ccccc3)c2)n1"
endpoint = "log10 Ki"
quantitative_readout = -0.92

[[record]]
compound_structure_string = "CN(Cc1ccccc1)C(=O)c1cc(-c2ccnc(Nc3ccccc3)n2)c[nH]1"
endpoint = "log10 Ki"
quantitative_readout = -0.52

[[record]]
compound_structure_string = "CCCONc1ncc(C)c(-c2c[nH]c(C(=O)N[C@H](CO)c3cccc(C)c3)c2)n1"
endpoint = "log10 Ki"
quantitative_readout = -2.30

[[record]]
compound_structure_string = "Cc1cnc(Nc2cccc(CO)c2C)nc1-c1c[nH]c(C(=O)N[C@H](CO)c2ccccc2)c1"
endpoint = "log10 Ki"
quantitative_readout = -3.00

[[record]]
compound_structure_string = "CC[C@@H](COC(=O)[C@H](C)N)Nc1ncc(C)c(-c2c[nH]c(C(=O)N[C@H](COC(=O)[C@H](C)N)c3cccc(Cl)c3)c2)n1"
endpoint = "log10 Ki"
quantitative_readout = -1.42

[[record]]
compound_structure_string = "Cc1cnc(N[C@H]2CCCC[C@H]2O)nc1-c1c[nH]c(C(=O)N[C@H](CO)c2ccccc2)c1"
endpoint = "log10 Ki"
quantitative_readout = -2.15

[[record]]
compound_structure_string = "O=C(c1cc(-c2ccnc(Nc3ccccc3)n2)c[nH]1)N1CCc2ccccc2C1"
endpoint = "log10 Ki"
quantitative_readout = -0.28

[[record]]
compound_structure_string = "Cc1cnc(N[C@@H]2C[C@@H]2C)nc1-c1c[nH]c(C(=O)N[C@H](CO)c2ccccc2)c1"
endpoint = "log10 Ki"
quantitative_readout = -3.30

[[record]]
compound_structure_string = "CC(=O)Nc1ncc(C)c(-c2c[nH]c(C(=O)N[C@H](CO)c3ccccc3)c2)n1"
endpoint = "log10 Ki"
quantitative_readout = -1.49

[[record]]
compound_structure_string = "Cc1cnc(Nc2ccc(Cl)cc2Cl)nc1-c1c[nH]c(C(=O)N[C@H](CO)c2ccccc2)c1"
endpoint = "log10 Ki"
quantitative_readout = -2.10

[[record]]
compound_structure_string = "COc1cccc(Nc2ncc(C)c(-c3c[nH]c(C(=O)N[C@H](CO)c4cccc(C)c4)c3)n2)c1C"
endpoint = "log10 Ki"
quantitative_readout = -0.70

[[record]]
compound_structure_string = "CCOC(=O)N1CCC(Nc2ncc(Cl)c(-c3c[nH]c(C(=O)N[C@H](CO)c4cccc(Cl)c4)c3)n2)CC1"
endpoint = "log10 Ki"
quantitative_readout = -2.15

[[record]]
compound_structure_string = "Cc1cnc(NNS(C)(=O)=O)nc1-c1c[nH]c(C(=O)N[C@H](CO)c2cccc(Cl)c2)c1"
endpoint = "log10 Ki"
quantitative_readout = -2.52

[[record]]
compound_structure_string = "CCN(CC)CCNc1ncc(C)c(-c2c[nH]c(C(=O)NCc3ccc(F)c(F)c3)c2)n1"
endpoint = "log10 Ki"
quantitative_readout = 0.60

[[record]]
compound_structure_string = "Cc1cnc(N)nc1-c1c[nH]c(C(=O)NCc2ccc3c(c2)OCO3)c1"
endpoint = "log10 Ki"
quantitative_readout = -0.85

[[record]]
compound_structure_string = "COC[C@H](C)Nc1ncc(C)c(-c2c[nH]c(C(=O)N[C@H](CO)c3ccccc3)c2)n1"
endpoint = "log10 Ki"
quantitative_readout = -1.62

[[record]]
compound_structure_string = "CCNc1ncc(C)c(-c2c[nH]c(C(=O)NCc3ccccc3O)c2)n1"
endpoint = "log10 Ki"
quantitative_readout = 0.18

[[record]]
compound_structure_string = "CC[C@@H](CO)Nc1ncc(C)c(-c2c[nH]c(C(=O)N(C)[C@H](CO)c3cccc(Cl)c3)c2)n1"
endpoint = "log10 Ki"
quantitative_readout = -2.70

[[record]]
compound_structure_string = "COC[C@@H]1CCCN1Nc1ncc(C)c(-c2c[nH]c(C(=O)N[C@H](CO)c3cccc(Cl)c3)c2)n1"
endpoint = "log10 Ki"
quantitative_readout = -2.05

[[record]]
compound_structure_string = "CCc1cnc(N)nc1-c1c[nH]c(C(=O)N[C@H](CO)c2ccccc2)c1"
endpoint = "log10 Ki"
quantitative_readout = -0.54

[[record]]
compound_structure_string = "Cc1cccc([C@@H](CO)NC(=O)c2cc(-c3nc(N[C@H]4CCOC4)ncc3C)c[nH]2)c1"
endpoint = "log10 Ki"
quantitative_readout = -2.40

[[record]]
compound_structure_string = "COc1cccc(CNC(=O)c2cc(-c3nc(N)ncc3C)c[nH]2)c1"
endpoint = "log10 Ki"
quantitative_readout = -0.09

[[record]]
compound_structure_string = "Cc1cnc(NC[C@@H](C)O)nc1-c1c[nH]c(C(=O)N[C@H](CO)c2ccccc2)c1"
endpoint = "log10 Ki"
quantitative_readout = -1.57

[[record]]
compound_structure_string = "CCNc1ncc(C)c(-c2c[nH]c(C(=O)NCc3ccccc3OC)c2)n1"
endpoint = "log10 Ki"
quantitative_readout = -0.33

[[record]]
compound_structure_string = "Cc1[nH]c(C(=O)N[C@H](CO)c2cccc(Cl)c2)c(C)c1-c1ccnc(Nc2ccc(F)cc2Cl)n1"
endpoint = "log10 Ki"
quantitative_readout = -2.05

[[record]]
compound_structure_string = "CC[C@@H](CO)Nc1ncc(C)c(-c2c[nH]c(C(=O)N[C@H](COP(=O)(O)O)c3cccc(Cl)c3)c2)n1"
endpoint = "log10 Ki"
quantitative_readout = -2.40

